Target: Cyclin-dependent kinase 4 (Homo sapiens, UniProt P11802)
Sequence (P11802 whole entry): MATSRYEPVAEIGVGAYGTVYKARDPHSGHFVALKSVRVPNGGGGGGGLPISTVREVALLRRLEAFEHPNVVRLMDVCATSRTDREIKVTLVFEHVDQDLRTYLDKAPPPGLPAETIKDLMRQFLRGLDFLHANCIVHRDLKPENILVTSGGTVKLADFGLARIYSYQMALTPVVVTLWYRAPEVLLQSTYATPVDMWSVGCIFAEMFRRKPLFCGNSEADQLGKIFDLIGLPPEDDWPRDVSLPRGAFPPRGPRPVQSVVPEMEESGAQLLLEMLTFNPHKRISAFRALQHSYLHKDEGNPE
resultType: IC50
# include the unit after the value

Look up and report measured IC50 (Cyclin-dependent kinase 4 (Homo sapiens, UniProt P11802)) for the following compound: `O=C1/C(=C/c2ccc(O)c(O)c2)Oc2cc(O)ccc21`
2820 nM

----------
Measured pIC50 on Death-associated protein kinase 2 (Homo sapiens) follows.
Sequence (Q9UIK4 whole entry): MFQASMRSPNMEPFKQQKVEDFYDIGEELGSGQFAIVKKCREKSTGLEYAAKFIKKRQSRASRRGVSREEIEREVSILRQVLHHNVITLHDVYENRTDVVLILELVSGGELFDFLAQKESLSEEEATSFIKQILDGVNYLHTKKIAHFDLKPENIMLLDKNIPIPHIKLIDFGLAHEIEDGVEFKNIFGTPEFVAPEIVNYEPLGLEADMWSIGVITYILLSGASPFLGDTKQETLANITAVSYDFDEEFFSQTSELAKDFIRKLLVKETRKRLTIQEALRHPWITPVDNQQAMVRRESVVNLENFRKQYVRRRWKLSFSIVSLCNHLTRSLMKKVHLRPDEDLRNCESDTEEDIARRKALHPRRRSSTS
Lab note — pIC50 values are minus log10 of concentrations in M.

[[record]]
compound = "CCOc1cc(/C=C2\\Oc3ccc(OC)cc3C2=O)ccc1O"
assayedtarget = "Death-associated protein kinase 2 (Homo sapiens)"
value = 4.64


Given the compound `COc1ccc2c(c1)C(=O)/C(=C/c1ccc(O)c(O)c1)O2` , write its reported pIC50.
5.20

Give the reported value of pIC50 for this record: O=C1/C(=C/c2ccc(O)c(O)c2)Oc2cc(O)ccc21 [SULFURETIN]
5.51

Consider the compound `COc1ccc(-c2cnc3scc(NC(=O)C4CCCCC4)c3c2)cc1OC` and give its recorded pIC50.
4.26

----------
Target: Cyclin-dependent kinase 5 (Homo sapiens)
Sequence (Q00535 whole entry): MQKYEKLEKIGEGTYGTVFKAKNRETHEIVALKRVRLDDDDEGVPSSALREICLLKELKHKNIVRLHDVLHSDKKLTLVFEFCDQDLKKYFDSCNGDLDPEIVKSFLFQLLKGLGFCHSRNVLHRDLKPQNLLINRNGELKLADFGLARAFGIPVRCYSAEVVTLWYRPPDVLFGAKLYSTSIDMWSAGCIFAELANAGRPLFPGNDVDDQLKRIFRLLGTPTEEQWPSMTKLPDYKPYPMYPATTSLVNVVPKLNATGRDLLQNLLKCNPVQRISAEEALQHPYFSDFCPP
resultType: IC50 (µM)
Enter your answer as a number in µM; do not include the unit.

Identify IC50 associated with the compound `COc1ccc2c(c1)C(=O)/C(=C/c1ccc(O)c(O)c1)O2`
8.84

----------
Biological target: Death-associated protein kinase 3 (Homo sapiens)
Sequence (O43293 whole entry): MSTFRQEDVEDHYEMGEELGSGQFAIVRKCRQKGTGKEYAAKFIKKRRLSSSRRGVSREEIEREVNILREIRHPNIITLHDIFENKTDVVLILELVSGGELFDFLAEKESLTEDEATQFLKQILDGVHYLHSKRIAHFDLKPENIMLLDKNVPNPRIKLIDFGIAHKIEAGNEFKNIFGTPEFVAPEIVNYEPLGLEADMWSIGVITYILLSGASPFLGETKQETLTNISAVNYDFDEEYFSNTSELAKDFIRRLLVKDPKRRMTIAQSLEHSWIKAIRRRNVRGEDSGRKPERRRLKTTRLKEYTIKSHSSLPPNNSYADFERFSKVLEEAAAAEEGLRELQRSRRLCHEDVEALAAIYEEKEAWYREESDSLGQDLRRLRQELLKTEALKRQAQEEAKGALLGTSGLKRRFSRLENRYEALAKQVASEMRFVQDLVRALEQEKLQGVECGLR
Documented IC50 across a set of compounds
Give the value, in units of µM, as a plain number.

[[record]]
compound = "COc1ccc2c(c1)C(=O)/C(=C/c1ccc(O)c(O)c1)O2"
resulttype = "IC50"
value = 12.1

[[record]]
compound = "CCOc1cc(/C=C2\\Oc3ccc(OC)cc3C2=O)ccc1O"
resulttype = "IC50"
value = 18.9

[[record]]
compound = "O=C1/C(=C/c2ccc(O)c(O)c2)Oc2cc(O)ccc21 [SULFURETIN]"
resulttype = "IC50"
value = 2.33


Turning now to a further compound:
Consider the compound `COc1ccc(-c2cnc3scc(NC(=O)C4CCCCC4)c3c2)cc1OC` tested on Death-associated protein kinase 3 (Homo sapiens); state its IC50.
39.8

----------
Molecular target: Angiopoietin-1 receptor (Homo sapiens, UniProt Q02763)
resultType: IC50 (nM)
Use nM as the unit, but write only the number.

Recall the reported IC50 of `COc1ccc2c(c1)C(=O)/C(=C/c1ccc(O)c(O)c1)O2` when tested on Angiopoietin-1 receptor (Homo sapiens, UniProt Q02763).
510

----------
Biological target: Tyrosine-protein kinase JAK2 (Homo sapiens, UniProt O60674)
Sequence (O60674 whole entry): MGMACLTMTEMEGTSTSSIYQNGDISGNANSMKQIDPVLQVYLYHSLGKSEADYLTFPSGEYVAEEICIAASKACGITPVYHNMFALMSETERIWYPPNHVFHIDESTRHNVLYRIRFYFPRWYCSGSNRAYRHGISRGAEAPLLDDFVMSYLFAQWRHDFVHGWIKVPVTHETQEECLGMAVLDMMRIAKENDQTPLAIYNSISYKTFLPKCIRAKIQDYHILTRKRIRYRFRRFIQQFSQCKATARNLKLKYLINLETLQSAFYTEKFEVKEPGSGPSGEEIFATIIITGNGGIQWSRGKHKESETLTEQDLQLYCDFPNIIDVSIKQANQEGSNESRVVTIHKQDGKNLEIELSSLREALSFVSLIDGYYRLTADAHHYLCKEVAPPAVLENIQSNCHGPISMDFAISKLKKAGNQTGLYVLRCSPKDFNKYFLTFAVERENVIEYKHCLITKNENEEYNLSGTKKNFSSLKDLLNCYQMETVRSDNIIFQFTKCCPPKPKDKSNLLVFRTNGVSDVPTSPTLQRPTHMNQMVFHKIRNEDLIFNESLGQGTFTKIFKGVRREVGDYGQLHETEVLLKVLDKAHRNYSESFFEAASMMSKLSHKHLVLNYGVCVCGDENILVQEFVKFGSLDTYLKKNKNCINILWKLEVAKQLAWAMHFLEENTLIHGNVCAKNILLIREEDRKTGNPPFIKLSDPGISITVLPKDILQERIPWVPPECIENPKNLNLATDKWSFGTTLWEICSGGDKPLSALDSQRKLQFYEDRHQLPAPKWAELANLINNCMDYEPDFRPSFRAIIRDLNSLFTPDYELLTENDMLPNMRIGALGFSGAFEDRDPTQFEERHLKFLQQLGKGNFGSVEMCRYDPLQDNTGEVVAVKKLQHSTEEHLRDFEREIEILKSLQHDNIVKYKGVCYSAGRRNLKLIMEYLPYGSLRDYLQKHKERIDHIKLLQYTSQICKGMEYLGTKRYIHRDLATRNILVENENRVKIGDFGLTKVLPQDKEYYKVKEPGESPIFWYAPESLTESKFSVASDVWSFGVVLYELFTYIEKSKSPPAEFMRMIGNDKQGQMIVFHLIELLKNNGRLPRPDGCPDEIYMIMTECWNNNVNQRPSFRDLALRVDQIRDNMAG
resultType: pIC50
Please note pIC50 is a logarithmic value: minus log10 of concentration in mol/L. Answer with that number alone.

Specify pIC50 for `O=C1/C(=C/c2ccc(O)c(O)c2)Oc2cc(O)ccc21` , system Tyrosine-protein kinase JAK2 (Homo sapiens, UniProt O60674).
5.03

----------
Target: Inhibitor of nuclear factor kappa-B kinase subunit beta (Homo sapiens, UniProt O14920)
Sequence (O14920 whole entry): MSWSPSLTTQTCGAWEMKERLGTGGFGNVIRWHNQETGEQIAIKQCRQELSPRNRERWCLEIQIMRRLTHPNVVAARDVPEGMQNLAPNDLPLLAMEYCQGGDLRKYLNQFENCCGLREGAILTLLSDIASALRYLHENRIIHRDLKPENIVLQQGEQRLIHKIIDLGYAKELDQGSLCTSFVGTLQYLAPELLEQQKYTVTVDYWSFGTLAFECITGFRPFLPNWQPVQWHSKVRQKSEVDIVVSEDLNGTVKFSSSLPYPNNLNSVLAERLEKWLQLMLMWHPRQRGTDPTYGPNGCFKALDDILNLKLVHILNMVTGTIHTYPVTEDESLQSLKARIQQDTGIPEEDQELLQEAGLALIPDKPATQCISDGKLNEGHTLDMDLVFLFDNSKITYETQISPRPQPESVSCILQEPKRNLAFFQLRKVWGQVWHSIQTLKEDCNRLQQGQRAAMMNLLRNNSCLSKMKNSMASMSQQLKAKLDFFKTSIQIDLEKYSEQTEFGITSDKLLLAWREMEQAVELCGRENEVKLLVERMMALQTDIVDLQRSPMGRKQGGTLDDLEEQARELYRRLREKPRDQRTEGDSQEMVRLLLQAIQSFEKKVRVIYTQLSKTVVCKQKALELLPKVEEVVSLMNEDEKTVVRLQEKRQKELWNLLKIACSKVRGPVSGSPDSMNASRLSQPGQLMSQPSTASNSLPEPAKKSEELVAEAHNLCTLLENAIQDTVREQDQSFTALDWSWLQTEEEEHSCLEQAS
Assay: Inhibition of human IKKB
resultType: IC50

Write down the reported IC50 (system: Inhibitor of nuclear factor kappa-B kinase subunit beta (Homo sapiens, UniProt O14920)) of `CCOc1cc(/C=C2\Oc3ccc(OC)cc3C2=O)ccc1O`
6.23 µM

----------
Target: Death-associated protein kinase 1 (Homo sapiens)
Sequence (P53355 whole entry): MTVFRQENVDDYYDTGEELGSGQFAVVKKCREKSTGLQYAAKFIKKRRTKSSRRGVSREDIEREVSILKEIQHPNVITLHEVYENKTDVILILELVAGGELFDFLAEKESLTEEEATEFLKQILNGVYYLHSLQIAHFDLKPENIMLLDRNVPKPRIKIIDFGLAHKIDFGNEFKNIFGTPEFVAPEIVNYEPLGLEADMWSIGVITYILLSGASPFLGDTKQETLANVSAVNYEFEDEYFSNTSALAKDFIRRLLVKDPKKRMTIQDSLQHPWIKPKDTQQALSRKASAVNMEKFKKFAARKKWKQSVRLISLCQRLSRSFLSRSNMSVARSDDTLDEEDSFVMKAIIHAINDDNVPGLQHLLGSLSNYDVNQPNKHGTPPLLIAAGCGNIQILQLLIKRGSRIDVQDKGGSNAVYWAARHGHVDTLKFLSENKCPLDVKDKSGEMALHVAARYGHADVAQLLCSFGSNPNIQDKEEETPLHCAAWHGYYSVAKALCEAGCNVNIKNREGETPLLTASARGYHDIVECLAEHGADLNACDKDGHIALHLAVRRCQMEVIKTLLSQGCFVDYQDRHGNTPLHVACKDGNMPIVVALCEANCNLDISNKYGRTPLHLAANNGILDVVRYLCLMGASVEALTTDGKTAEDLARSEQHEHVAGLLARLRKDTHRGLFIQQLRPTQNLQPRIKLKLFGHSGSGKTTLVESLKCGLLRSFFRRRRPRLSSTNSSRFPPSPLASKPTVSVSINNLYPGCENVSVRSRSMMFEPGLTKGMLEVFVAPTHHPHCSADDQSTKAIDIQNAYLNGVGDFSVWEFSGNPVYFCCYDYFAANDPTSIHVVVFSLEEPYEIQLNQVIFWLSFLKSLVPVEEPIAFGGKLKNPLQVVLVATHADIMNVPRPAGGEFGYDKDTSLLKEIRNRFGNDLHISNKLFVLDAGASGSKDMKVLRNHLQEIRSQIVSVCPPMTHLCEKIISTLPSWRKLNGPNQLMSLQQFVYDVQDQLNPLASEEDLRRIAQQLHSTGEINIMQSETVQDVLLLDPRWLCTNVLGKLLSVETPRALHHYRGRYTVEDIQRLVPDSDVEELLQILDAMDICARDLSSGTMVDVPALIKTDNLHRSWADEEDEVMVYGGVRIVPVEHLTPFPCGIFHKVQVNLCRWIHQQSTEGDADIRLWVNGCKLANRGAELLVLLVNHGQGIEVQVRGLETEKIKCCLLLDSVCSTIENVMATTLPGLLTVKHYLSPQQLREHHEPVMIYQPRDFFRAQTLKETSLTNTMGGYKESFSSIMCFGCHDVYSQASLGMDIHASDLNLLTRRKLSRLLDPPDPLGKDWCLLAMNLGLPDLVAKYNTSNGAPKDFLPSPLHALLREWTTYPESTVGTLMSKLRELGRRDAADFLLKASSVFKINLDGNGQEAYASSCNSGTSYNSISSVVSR
resultType: IC50 (µM)
Entry rule: numbers only, all in µM.

Output reported IC50 of the compound `O=C1/C(=C/c2ccc(O)c(O)c2)Oc2cc(O)ccc21` on Death-associated protein kinase 1 (Homo sapiens).
13.2
